Where do the numbers come from? From patent US20130136748A1.

Target: human HER4 (human, UniProt Q15303 26-1308)
Sequence (Q15303 26-1308 limits assumed): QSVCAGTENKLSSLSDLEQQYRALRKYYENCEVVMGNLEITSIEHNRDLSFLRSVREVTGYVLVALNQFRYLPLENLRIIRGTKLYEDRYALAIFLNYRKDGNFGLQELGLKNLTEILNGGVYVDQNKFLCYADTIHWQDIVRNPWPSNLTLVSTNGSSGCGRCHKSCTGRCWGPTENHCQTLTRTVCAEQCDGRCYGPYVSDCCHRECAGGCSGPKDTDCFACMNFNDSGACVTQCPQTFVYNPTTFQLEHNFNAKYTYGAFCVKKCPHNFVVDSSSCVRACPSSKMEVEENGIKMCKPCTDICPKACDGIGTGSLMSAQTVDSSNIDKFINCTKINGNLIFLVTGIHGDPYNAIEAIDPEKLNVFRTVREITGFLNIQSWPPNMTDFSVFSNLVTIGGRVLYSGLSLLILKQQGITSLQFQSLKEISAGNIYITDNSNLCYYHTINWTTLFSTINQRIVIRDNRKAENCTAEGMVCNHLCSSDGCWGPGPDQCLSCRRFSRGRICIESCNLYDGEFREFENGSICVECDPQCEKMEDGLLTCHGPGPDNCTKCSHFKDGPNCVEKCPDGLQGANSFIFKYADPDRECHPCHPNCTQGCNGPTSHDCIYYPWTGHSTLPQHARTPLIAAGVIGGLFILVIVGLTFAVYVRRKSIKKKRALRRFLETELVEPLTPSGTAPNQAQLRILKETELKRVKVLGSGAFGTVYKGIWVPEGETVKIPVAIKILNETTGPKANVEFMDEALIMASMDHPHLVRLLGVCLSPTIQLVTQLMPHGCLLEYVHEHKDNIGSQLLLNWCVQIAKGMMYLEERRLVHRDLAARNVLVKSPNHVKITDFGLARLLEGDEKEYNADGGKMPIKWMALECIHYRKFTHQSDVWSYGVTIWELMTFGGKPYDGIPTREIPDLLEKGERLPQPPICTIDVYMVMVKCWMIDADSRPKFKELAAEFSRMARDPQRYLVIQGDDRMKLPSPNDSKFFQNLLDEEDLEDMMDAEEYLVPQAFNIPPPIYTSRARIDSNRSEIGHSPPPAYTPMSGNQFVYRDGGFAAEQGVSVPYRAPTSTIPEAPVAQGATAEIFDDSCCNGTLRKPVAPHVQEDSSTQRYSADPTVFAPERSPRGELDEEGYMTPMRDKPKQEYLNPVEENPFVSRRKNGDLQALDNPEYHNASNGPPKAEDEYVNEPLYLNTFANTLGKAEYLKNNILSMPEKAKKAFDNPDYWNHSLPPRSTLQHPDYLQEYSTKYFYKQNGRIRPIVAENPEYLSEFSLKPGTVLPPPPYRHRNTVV
Test: FACS CHO-HER4, 222 nM
property-label: MCF
Would you mind answering with just the numeric figure?

Illustrative cases are given below, each with its answer.
21F06 (VHH, c-myc, His6-tagged form as expressed; also called 21F6; HER3MS21F06) VHH: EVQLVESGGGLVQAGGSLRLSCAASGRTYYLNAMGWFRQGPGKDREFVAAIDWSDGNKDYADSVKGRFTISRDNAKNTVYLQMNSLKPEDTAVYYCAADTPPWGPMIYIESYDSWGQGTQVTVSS | 149
21B02 (VHH) VHH: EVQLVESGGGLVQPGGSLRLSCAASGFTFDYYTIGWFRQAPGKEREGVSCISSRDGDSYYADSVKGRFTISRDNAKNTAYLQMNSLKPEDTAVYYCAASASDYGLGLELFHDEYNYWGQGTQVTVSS | 91

Turning now to a further record.
[Q] Report measured MCF; entry is 17E08 (VHH) VHH: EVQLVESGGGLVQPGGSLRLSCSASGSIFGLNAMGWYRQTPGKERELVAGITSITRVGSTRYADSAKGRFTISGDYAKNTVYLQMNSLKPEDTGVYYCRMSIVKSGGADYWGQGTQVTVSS
[A] 110
